Conditions: human gut metagenome, 24 h, 2 µM; further: call rule not given here
readoutName: Bacterial Biotransformation

compound	readoutName	result
CO[C@]12C[C@@H](COC(=O)c3cncc(Br)c3)CN(C)[C@@H]1Cc1cn(C)c3cccc2c13 [NICERGOLINE]	Bacterial Biotransformation	Compound NOT metabolized
CC(C)NCC(O)COc1ccc(COCCOC(C)C)cc1.CC(C)NCC(O)COc1ccc(COCCOC(C)C)cc1.O=C(O)/C=C/C(=O)O (configuration not stated) [BISOPROLOL FUMARATE]	Bacterial Biotransformation	Compound NOT metabolized
COc1c(C)c2c(c(O)c1C/C=C(\C)CCC(=O)OCCN1CCOCC1)C(=O)OC2 [MYCOPHENOLATE MOFETIL]	Bacterial Biotransformation	Compound metabolized
C[C@@H]1C[C@H]2[C@@H]3CCC4=CC(=O)C=C[C@]4(C)[C@@]3(F)[C@@H](O)C[C@]2(C)[C@@]1(O)C(=O)CO [DEXAMETHASONE]	Bacterial Biotransformation	Compound NOT metabolized
COc1ccc2c3c1O[C@H]1C[C@@H](O)C=C[C@@]31CCN(C)C2 [GALANTAMINE]	Bacterial Biotransformation	Compound metabolized
CCc1nc(N)nc(N)c1-c1ccc(Cl)cc1 [PYRIMETHAMINE]	Bacterial Biotransformation	Compound NOT metabolized
CN1C(=O)CCS(=O)(=O)C1c1ccc(Cl)cc1 (configuration not stated) [CHLORMEZANONE]	Bacterial Biotransformation	Compound NOT metabolized
CC(C)(C(=O)O)c1ccc(C(O)CCCN2CCC(C(O)(c3ccccc3)c3ccccc3)CC2)cc1 (configuration not stated) [FEXOFENADINE]	Bacterial Biotransformation	Compound NOT metabolized

Look up Bacterial Biotransformation for the entries below, preserving their order.
1. C=CCc1ccccc1OCC(O)CNC(C)C (configuration not stated) [ALPRENOLOL]
2. CCN(CC)CCOCCOC(=O)C1(c2ccccc2)CCCC1.O=C(O)CC(O)(CC(=O)O)C(=O)O [CARBETAPENTANE CITRATE]
3. CN1CCN(C2=Nc3cc(Cl)ccc3Nc3ccccc32)CC1 [CLOZAPINE]
4. O=c1n(CCCN2CCN(c3cccc(Cl)c3)CC2)nc2ccccn12 [TRAZODONE]
5. CN1CC(=O)N2[C@H](c3ccc4c(c3)OCO4)c3[nH]c4ccccc4c3C[C@@H]2C1=O
6. CN1C[C@H](C(=O)N[C@]2(C)O[C@@]3(O)[C@@H]4CCCN4C(=O)[C@H](Cc4ccccc4)N3C2=O)C=C2c3cccc4[nH]cc(c34)C[C@H]21.CN1C[C@H](C(=O)N[C@]2(C)O[C@@]3(O)[C@@H]4CCCN4C(=O)[C@H](Cc4ccccc4)N3C2=O)C=C2c3cccc4[nH]cc(c34)C[C@H]21.O=C(O)C(O)C(O)C(=O)O [ERGOTAMINE TARTRATE]
7. Nc1nc2ccc(OC(F)(F)F)cc2s1 [RILUZOLE]

Output line:
["Compound metabolized", "Compound metabolized", "Compound NOT metabolized", "Compound metabolized", "Compound metabolized", "Compound metabolized", "Compound metabolized"]

Give Bacterial Biotransformation for each listed item.
1. CC(C)c1c(C(=O)Nc2ccccc2)c(-c2ccccc2)c(-c2ccc(F)cc2)n1CC[C@@H](O)C[C@@H](O)CC(=O)O [ATORVASTATIN]
2. CC(O)(CS(=O)(=O)c1ccc(F)cc1)C(=O)Nc1ccc(C#N)c(C(F)(F)F)c1 (configuration not stated) [BICALUTAMIDE]
3. CN1CCc2c(c3ccccc3n2Cc2ccccc2)C1.CN1CCc2c(c3ccccc3n2Cc2ccccc2)C1.O=S(=O)(O)c1cccc2c(S(=O)(=O)O)cccc12
4. O=c1[nH]c2ccccc2n1CCCN1CCC(n2c(=O)[nH]c3cc(Cl)ccc32)CC1 [DOMPERIDONE]
5. CCN(CC)CCOC(=O)C(Cc1cccc2ccccc12)CC1CCCO1.O=C(O)C(=O)O (configuration not stated) [NAFRONYL OXALATE]
6. OCCN1CCN(CCCN2c3ccccc3Sc3ccc(C(F)(F)F)cc32)CC1 [FLUPHENAZINE]
7. CN1CCOC(c2ccccc2)c2ccccc2C1 (configuration not stated) [NEFOPAM]
8. CCCc1nn(C)c2c(=O)[nH]c(-c3cc(S(=O)(=O)N4CCN(C)CC4)ccc3OCC)nc12.O=C(O)CC(O)(CC(=O)O)C(=O)O [SILDENAFIL CITRATE]

Output line:
1. Compound metabolized
2. Compound NOT metabolized
3. Compound NOT metabolized
4. Compound NOT metabolized
5. Compound metabolized
6. Compound metabolized
7. Compound NOT metabolized
8. Compound NOT metabolized

I would be grateful if you could provide Bacterial Biotransformation for each of the following entries.
1. CCCc1nc2c(C)cc(-c3nc4ccccc4n3C)cc2n1Cc1ccc(-c2ccccc2C(=O)O)cc1
2. NS(=O)(=O)c1cc2c(cc1Cl)N=C(CSCc1ccccc1)NS2(=O)=O [BENZTHIAZIDE]
3. C[C@@H](CO)NC(=O)[C@@H]1C=C2c3cccc4[nH]cc(c34)C[C@H]2N(C)C1.O=C(O)/C=C\C(=O)O [ERGONOVINE MALEATE]
4. OCCOCCN1CCN(C2=Nc3ccccc3Sc3ccccc32)CC1 [QUETIAPINE]
5. CCOC(=O)[C@H](CCc1ccccc1)N[C@@H](C)C(=O)N1[C@H](C(=O)O)C[C@@H]2CCC[C@@H]21
6. OC(CCN1CCCCC1)(c1ccccc1)C1CCCCC1 (configuration not stated) [TRIHEXYPHENIDYL]
7. O=C(O)CCc1nc(-c2ccccc2)c(-c2ccccc2)o1 [OXAPROZIN]
8. CCCCCOC(=O)Nc1nc(=O)n([C@@H]2O[C@H](C)[C@@H](O)[C@H]2O)cc1F [CAPECITABINE]

Output line:
1. Compound metabolized
2. Compound NOT metabolized
3. Compound NOT metabolized
4. Compound metabolized
5. Compound metabolized
6. Compound metabolized
7. Compound metabolized
8. Compound metabolized

Input line: Look at this compound and give its reported Bacterial Biotransformation. CN1CCC(=C2c3ccccc3CCc3cccnc32)CC1.O=C(O)/C=C\C(=O)O.O=C(O)/C=C\C(=O)O [AZATADINE MALEATE]
Output line: Compound NOT metabolized
